Where do these numbers come from? They come from the supplement of paper PMC11316812.

test system: hTERT-HMEC; assay: percentage of EdU-negative (G0-arrested) nuclei per well, 72 h; higher = more G0 arrest; conditions: protein concentration 0.225 µM; reference: sequence is the full UniProt precursor, the tested protein was the secreted form or ectodomain;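 further: secreted proteins added to cultured cells, EdU pulse at the end, nuclei found by Hoechst imaging, EdU status from nuclear versus surrounding ring intensity ratio, PBS as neutral control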
MEASURE NAME: percentage of EdU-negative (%)
Numeric only. Scale: %

### Prompt Find the recorded percentage of EdU-negative belonging to MKFSPAHYLLPLLPALVLSTRQDYEELEKQLKEVFKERSTILRQLTKTSRELDGIKVNLQSLKNDEQSAKTDVQKLLELGQKQREEMKSLQEALQNQLKETSEKAEKHQATINFLKTEVERKSKMIRDLQNENKSLKNKLLSGNKLCGIHAEESKKIQAQLKELRYGKKDLLFKAQQLTDLEQKLAVAKNELEKAALDRESQMKAMKETVQLCLTSVFRDQPPPPLSLITSNPTRMLLPPRNIASKLPDAAAKSKPQQSASGNNESSQVESTKEGNPSTTACDSQDEGRPCSMKHKESPPSNATAETEPIPQKLQMPPCSECEVKKAPEKPLTSFEGMAAREEKIL [Q86TE4] and report it.
### Response 8.84

### Prompt Find the recorded percentage of EdU-negative belonging to MWLLLTLSFLLASTAAQDGDKLLEGDECAPHSQPWQVALYERGRFNCGASLISPHWVLSAAHCQSRFMRVRLGEHNLRKRDGPEQLRTTSRVIPHPRYEARSHRNDIMLLRLVQPARLNPQVRPAVLPTRCPHPGEACVVSGWGLVSHNEPGTAGSPRSQVSLPDTLHCANISIISDTSCDKSYPGRLTNTMVCAGAEGRGAESCEGDSGGPLVCGGILQGIVSWGDVPCDNTTKPGVYTKVCHYLEWIRETMKRN [Q9H2R5] and report it.
### Response 5.86

### Prompt Find the recorded percentage of EdU-negative belonging to "MWWRVLSLLAWFPLQEASLTNHTETITVEEGQTLTLKCVTSLRKNSSLQWLTPSGFTIFLNEYPALKNSKYQLLHHSANQLSITVPNVTLQDEGVYKCLHYSDSVSTKEVKVIVLATPFKPILEASVIRKQNGEEHVVLMCSTMRSKPPPQITWLLGNSMEVSGGTLHEFETDGKKCNTTSTLIIHTYGKNSTVDCIIRHRGLQGRKLVAPFRFEDLVTDEETASDALERNSLSSQDPQQPTSTVSVTEDSSTSEIDKEEKEQTTQDPDLTTEANPQYLGLARKKSGILLLTLVSFLIFILFIIVQLFIMKLRKAHVIWKKENEVSEHTLESYRSRSNNEETSSEEKNGQSSHPMRCMNYITKLYSEAKTKRKENVQHSKLEEKHIQVPESIV" and report it.
### Response 4.66

### Prompt Find the recorded percentage of EdU-negative belonging to MRWCLLLIWAQGLRQAPLASGMMTGTIETTGNISAEKGGSIILQCHLSSTTAQVTQVNWEQQDQLLAICNADLGWHISPSFKDRVAPGPGLGLTLQSLTVNDTGEYFCIYHTYPDGTYTGRIFLEVLESSVAEHGARFQIPLLGAMAATLVVICTAVIVVVALTRKKKALRIHSVEGDLRRKSAGQEEWSPSAPSPPGSCVQAEAAPAGLCGEQRGEDCAELHDYFNVLSYRSLGNCSFFTETG [Q495A1] and report it.
### Response 5.59

### Prompt Find the recorded percentage of EdU-negative belonging to "MGRRDAQLLAALLVLGLCALAGSEKPSPCQCSRLSPHNRTNCGFPGITSDQCFDNGCCFDSSVTGVPWCFHPLPKQESDQCVMEVSDRRNCGYPGISPEECASRKCCFSNFIFEVPWCFFPKSVEDCHY" and report it.
### Response 5.92

### Prompt Find the recorded percentage of EdU-negative belonging to MMCPLWRLLIFLGLLALPLAPHKQPWPGLAQAHRDNKSTLARIIAQGLIKHNAESRIQNIHFGDRLNASAQVAPGLVGWLISGRKHQQQQESSINITNIQLDCGGIQISFHKEWFSANISLEFDLELRPSFDNNIVKMCAHMSIVVEFWLEKDEFGRRDLVIGKCDAEPSSVHVAILTEAIPPKMNQFLYNLKENLQKVLPHMVESQVCPLIGEILGQLDVKLLKSLIEQEAAHEPTHHETSQPSACQAGESPS [Q9BQP9] and report it.
### Response 12.1

### Prompt Find the recorded percentage of EdU-negative belonging to MSPHLTALLGLVLCLAQTIHTQEGALPRPSISAEPGTVISPGSHVTFMCRGPVGVQTFRLEREDRAKYKDSYNVFRLGPSESEARFHIDSVSEGNAGLYRCLYYKPPGWSEHSDFLELLVKESSGGPDSPDTEPGSSAGTVPGTEASGFDAP [Q6ISS4] and report it.
### Response 6.43

### Prompt Find the recorded percentage of EdU-negative belonging to "MWVPVVFLTLSVTWIGAAPLILSRIVGGWECEKHSQPWQVLVASRGRAVCGGVLVHPQWVLTAAHCIRNKSVILLGRHSLFHPEDTGQVFQVSHSFPHPLYDMSLLKNRFLRPGDDSSHDLMLLRLSEPAELTDAVKVMDLPTQEPALGTTCYASGWGSIEPEEFLTPKKLQCVDLHVISNDVCAQVHPQKVTKFMLCAGRWTGGKSTCSGDSGGPLVCNGVLQGITSWGSEPCALPERPSLYTKVVHYRKWIKDTIVANP" and report it.
### Response 5.29

### Prompt Find the recorded percentage of EdU-negative belonging to MMLHSALGLCLLLVTVSSNLAIAIKKEKRPPQTLSRGWGDDITWVQTYEEGLFYAQKSKKPLMVIHHLEDCQYSQALKKVFAQNEEIQEMAQNKFIMLNLMHETTDKNLSPDGQYVPRIMFVDPSLTVRADIAGRYSNRLYTYEPRDLPLLIENMKKALRLIQSEL [Q8TD06] and report it.
### Response 6.43

### Prompt Find the recorded percentage of EdU-negative belonging to "MMWPMHTPLLLLTALMVAVAGSASAQSRTLAGGIHATDLNDKSVQCALDFAISEYNKVINKDEYYSRPLQVMAAYQQIVGGVNYYFNVKFGRTTCTKSQPNLDNCPFNDQPKLKEEEFCSFQINEVPWEDKISILNYKCRKV" and report it.
### Response 6.17

### Prompt Find the recorded percentage of EdU-negative belonging to MRIMLLFTAILAFSLAQSFGAVCKEPQEEVVPGGGRSKRDPDLYQLLQRLFKSHSSLEGLLKALSQASTDPKESTSPEKRDMHDFFVGLMGKRSVQPDSPTDVNQENVPSFGILKYPPRAE [Q9UHF0] and report it.
### Response 5.91

### Prompt Find the recorded percentage of EdU-negative belonging to "MCSRGWDSCLALELLLLPLSLLVTSIQGHLVHMTVVSGSNVTLNISESLPENYKQLTWFYTFDQKIVEWDSRKSKYFESKFKGRVRLDPQSGALYISKVQKEDNSTYIMRVLKKTGNEQEWKIKLQVLDPVPKPVIKIEKIEDMDDNCYLKLSCVIPGESVNYTWYGDKRPFPKELQNSVLETTLMPHNYSRCYTCQVSNSVSSKNGTVCLSPPCTLARSFGVEWIASWLVVTVPTILGLLLT" and report it.
### Response 10.7
